Test system: Human peripheral blood-derived monocytes (CD14 positive cells)
Assay comment: LPS-dependent inflammatory cytokine production in human peripheral blood-derived monocytes (ELISA)
Format: cell-based
Test parameters: LPS 0.125 ng/mL + 1.25, 2.5, or 5.0 μM ganglioside, 18 hours (FIG. 8)
Protocol: Human peripheral blood-derived monocytes (CD14 positive cells) were cultured in DMEM (Low Glucose) containing 0.5% FCS and 25 ng/mL of granulocyte/macrophage colony stimulating factor, and co-stimulated with 0.125 ng/mL of E. coli-derived lipopolysaccharide (LPS, E. coli O111:B4), and 1.25, 2.5, or 5.0 μM of N-mix (neutral glycosphingolipid mixture (Glc-Cer, Lac-Cer, Gb3, and Gb4)) or each of the ganglioside molecular species. […]
Parameter measured: production of IL-6 by LPS

Molecule	Parameter measured	Recorded result
CCCCCCCCCCCCCC=CC(O)C(COC1OC(CO)C(OC2OC(CO)C(O)C(OC3(C(=O)O)CC(O)C(NC(C)=O)C(C(O)C(O)CO)O3)C2O)C(O)C1O)NC(=O)CCCCCCCCCCCCCCCCCCCCCCC (stereo not drawn) [GM3C24, reference compound]	production of IL-6 by LPS	significantly enhanced
CCCCCCCCCCCCCC=CC(O)C(COC1OC(CO)C(OC2OC(CO)C(O)C(OC3(C(=O)O)CC(O)C(NC(C)=O)C(C(O)C(O)CO)O3)C2O)C(O)C1O)NC(=O)CCCCCCCCCCCCCCCCCCCCC (stereo not drawn) [GM3C22, reference compound]	production of IL-6 by LPS	significantly enhanced
